Catalogue of inhibition values
SYSTEM: Aldo-keto reductase family 1 member B1 (Rattus norvegicus)
PROTOCOL_NOTES: Inhibition of Rattus norvegicus albino (rat) kidney aldose reductase using DL-glyceraldehyde as substrate assessed as decrease in NADPH concentRattus norvegicus (rat) ion at 10^-4 M after 5 min by spectrophotometrically

Solved entries (count: 4):
SMILES_REPR: Cc1cc(C)n(-c2ccc(=O)n(CC(=O)N3CCN(c4ccc(F)cc4)CC3)n2)n1
ENDPOINT_RESULT: 1.85%
--
SMILES_REPR: Cc1nn(-c2ccc(=O)n(CC(=O)NCCc3ccccc3)n2)c(C)c1Cl
ENDPOINT_RESULT: 0%
--
SMILES_REPR: Cc1cc(C)n(-c2ccc(=O)n(CC(=O)O)n2)n1
ENDPOINT_RESULT: 7.73%
--
SMILES_REPR: Cc1cc(C)n(-c2ccc(=O)n(CC(=O)NCCc3ccccc3)n2)n1
ENDPOINT_RESULT: 0%

Q: What does the data say about its inhibition? Entry: "Cc1cc(-c2ccccc2)nn1-c1ccc(=O)n(CC(=O)O)n1"
A: 0.76%

Q: Also need "O=C(CCc1cc(-c2ccc(Cl)cc2)n(-c2ccc(Cl)nn2)n1)NCCc1ccccc1" , thanks.
A: 0%

Q: Also "Cc1cc(-c2ccccc2)nn1-c1ccc(=O)n(CC(=O)N2CCN(c3ccc(F)cc3)CC2)n1" , if possible.
A: 0%

Q: "O=C(CCc1cc(-c2ccc(Cl)cc2)n(-c2ccc(Cl)nn2)n1)Nc1ccc(Cl)cc1" , same question.
A: 0%

Q: Also "Cc1nn(-c2ccc(=O)n(CC(=O)N3CCCCC3)n2)c(C)c1Cl" , if possible.
A: 0%

Q: Next record, please: "Cc1nn(-c2ccc(=O)n(CC(=O)Nc3ccc(F)cc3)n2)c(C)c1Cl"
A: 0%
